# System Under Test: T1, human DLL4 extracellular domain (human, UniProt Q9NR61 27-529)
# T1 construct: purified recombinant ECD; biotin-labelled or 6xHis-tagged depending on the assay; also called huDLL4 ECD; hu DLL4 ECD
# T1 sequence (Q9NR61 27-529 limits assumed): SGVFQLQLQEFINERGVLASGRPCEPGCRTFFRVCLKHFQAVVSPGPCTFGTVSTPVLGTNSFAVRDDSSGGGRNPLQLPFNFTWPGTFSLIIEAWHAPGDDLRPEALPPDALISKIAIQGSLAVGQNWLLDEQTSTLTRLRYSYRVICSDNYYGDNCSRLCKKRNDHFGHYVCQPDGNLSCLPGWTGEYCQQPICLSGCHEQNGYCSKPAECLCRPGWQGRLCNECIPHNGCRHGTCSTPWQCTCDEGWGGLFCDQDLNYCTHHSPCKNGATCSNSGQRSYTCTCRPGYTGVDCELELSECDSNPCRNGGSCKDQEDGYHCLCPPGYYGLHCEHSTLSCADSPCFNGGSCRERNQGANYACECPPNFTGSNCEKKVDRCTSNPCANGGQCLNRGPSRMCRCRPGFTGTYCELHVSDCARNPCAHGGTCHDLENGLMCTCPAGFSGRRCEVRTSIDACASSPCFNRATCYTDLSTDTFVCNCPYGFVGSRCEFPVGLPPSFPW
# Protocol Summary: SPR (Biacore)
Measured Parameter: Kd (nM)
Give just the number in nM; leave the unit off.

Consider the following illustrative entries.
binder="14A11 rat anti-DLL4 monoclonal antibody (antibody, rat IgG2a, V domains shown, rat IgG2a/K hybridoma mAb; also called MC13-14A11.3A4) VH: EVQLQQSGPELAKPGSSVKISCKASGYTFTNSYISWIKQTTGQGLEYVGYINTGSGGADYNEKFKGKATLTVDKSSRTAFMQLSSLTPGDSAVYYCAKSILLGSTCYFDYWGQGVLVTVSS VL: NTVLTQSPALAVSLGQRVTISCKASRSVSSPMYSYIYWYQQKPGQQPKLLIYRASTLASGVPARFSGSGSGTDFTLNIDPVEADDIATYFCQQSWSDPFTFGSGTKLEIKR" meas_value=10.3
binder="37D10 rat anti-DLL4 monoclonal antibody (antibody, rat IgG2a, V domains shown, rat IgG2a/k hybridoma mAb; also called 40B10; 37D10 = 40B10) VH: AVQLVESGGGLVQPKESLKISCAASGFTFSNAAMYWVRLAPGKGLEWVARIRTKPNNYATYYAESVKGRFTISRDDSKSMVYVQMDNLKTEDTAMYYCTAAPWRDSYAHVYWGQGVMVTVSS VL: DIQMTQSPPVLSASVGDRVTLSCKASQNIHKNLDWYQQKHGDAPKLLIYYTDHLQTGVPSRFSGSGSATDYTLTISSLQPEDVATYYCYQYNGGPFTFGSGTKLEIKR" meas_value=484

Fill in: Kd of 15D6 rat anti-DLL4 monoclonal antibody (antibody, rat IgG2a, V domains shown, rat IgG2a/K hybridoma mAb; also called MC13-15D6.1G7) VH: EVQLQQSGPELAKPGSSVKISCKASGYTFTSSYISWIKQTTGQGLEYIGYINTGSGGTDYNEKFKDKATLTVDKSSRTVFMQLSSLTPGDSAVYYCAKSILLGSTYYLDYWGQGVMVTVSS VL: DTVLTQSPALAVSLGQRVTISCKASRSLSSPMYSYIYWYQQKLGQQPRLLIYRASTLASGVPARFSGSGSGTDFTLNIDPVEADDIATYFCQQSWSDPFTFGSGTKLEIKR is ___ 9.2
